Collected TGI values appear next to each entry.
# Tested on: MOLT-4 leukemia
# method_description: NCI tumour cell line growth inhibition, 48 h
measured_quantity: TGI

1. COc1nc(N)c(C(=O)CCl)c(=O)n1C
44.7 µM
2. O=C(/C=C/c1ccccc1)NC1C=Nc2ccc(Cl)cc2NC1=O (stereo not given)
27.3 µM
3. CC12CCC(O)CC1CCC1C2CCC2(C)C(C3=CC(=O)OC3)CCC12O (stereo not given)
> 100 µM
4. COc1cc([C@@H]2OCC3C(c4ccc5c(c4)OCO5)OCC32)cc(OC)c1OC (stereo not given in full)
> 100 µM
5. N#CCCN(CCC#N)c1ccc(/C=C2\N=C(c3cc([N+](=O)[O-])ccc3Cl)OC2=O)cc1
57.7 µM
6. Cn1cc(C2=C(c3cn(C)c4ncccc34)C(=O)NC2=O)c2ccccc21
> 24 µM
7. COC(CN1C(=O)c2cccc3cccc(c23)C1=O)OC
> 100 µM
8. CCC[C@@H](O)C[C@@H]1CCC[C@H](C[C@@H](O)CC)N1C
> 100 µM
9. C[C@@]12C[C@@H](c3ccccc3O1)N1CCCCSC1=N2
> 100 µM
10. COc1ccc(CNc2nc(NCc3ccc(OC)c(OC)c3)nc(NC3CCCCC3)n2)cc1
> 100 µM

###

# Tested on: UACC-257 melanoma
# method_description: NCI tumour cell line growth inhibition, 48 h
Mark 0.0 for TGI values under 20 µM, and 1.0 for everything at or above.

1) C=C1C(=O)C23CC1CCC2C12CO[C@@H]4OCC(C)(CC[C@@H]1OC3=O)C42 (stereo partly drawn)
0.0
2) CCOc1ccc(NC(=O)C(=O)CC(=O)c2c[n+](=O)c3cc(C)c(C)cc3n2[O-])cc1
1.0
3) CCC12C=CCN3CCC4(C(=C(C(=O)OC)[C@@H]1O)Nc1ccccc14)C32 (stereo partly drawn)
0.0
4) Cc1ccccc1-n1c(=O)c2ncn(CCCl)c2n(-c2ccccc2C)c1=S
1.0
5) Cc1cc(I)cc(CN(C)CCCCN2CCCCC2)c1O
0.0
6) C=C(C1=CC(=O)C(C)(C)O1)[C@@H]1CC=C([C@@H]2CC[C@H]3[C@@]2(C)CC[C@H]2C(C)(C)C(=O)[C@H](O)C[C@]32C)[C@H](O)O1
0.0
7) O=S(=O)(NC1=NCCN1C(=S)SN1CCn2c1nsc2=S)c1ccc(OC(F)(F)F)cc1
1.0
8) COc1ccc2c(C3=C(c4cn(C)c5ccccc45)C(=O)NC3=O)cn(C)c2c1
1.0
9) CN(C)C(=N)c1ccccc1
1.0
10) CCCCOC(=O)C1OC(O[C@H]2CCC3(C)C(CCC4(C)C3CC=C3C5CC(C)(C)CCC5(C(=O)O)CC[C@]34C)C2(C)C)C(OC2OC(CO)C(O)C(O)C2O)C(OC2OC(CO)C(O)C(O)C2O)C1O (stereo partly drawn)
1.0
11) CCCCCCCCCCCOc1ccc(C(=O)C(=O)c2ccc(OCCCCCCCCCCC)c(OCCCCCCCCCCC)c2)cc1OCCCCCCCCCCC
1.0
12) CCCCC(=O)OCC(=O)[C@]1(O)Cc2c(O)c3c(c(O)c2[C@@H](OC2CC(NC(=O)C(F)(F)F)C(O)C(C)O2)C1)C(=O)c1c(OC)cccc1C3=O (stereo partly drawn)
0.0
13) O=C1C(Cl)=C(Nc2cccc(Cl)c2)C(=O)N1Cc1ccc(Cl)cc1Cl
1.0
14) COc1cc(-c2nn(-c3ccc(NC(=O)c4ccc(Cl)c(C(F)(F)F)c4)cc3)cc2-c2ccncc2)ccc1Cl
1.0
15) CC(C)c1ccc(/C=C2/C=C(c3ccc4ccccc4c3)OC2=O)cc1
1.0
16) Cc1coc2c1CC1(C)C(CCC(O)C1C)C2 (stereo not drawn)
1.0
17) O=C(Nc1ccccc1)NS(=O)(=O)c1ccc(-n2nc3c(c2-c2cccs2)Cc2ccccc2-3)cc1
1.0
18) Cc1cc(N(CCC#N)CCC#N)ccc1/C(N=Nc1ccc(Cl)cc1)=N\NC(=O)c1ccccc1
1.0
